- Target entity: HuRfl (Homo sapiens, UniProt Q15717)
- Sequence (Q15717 whole entry): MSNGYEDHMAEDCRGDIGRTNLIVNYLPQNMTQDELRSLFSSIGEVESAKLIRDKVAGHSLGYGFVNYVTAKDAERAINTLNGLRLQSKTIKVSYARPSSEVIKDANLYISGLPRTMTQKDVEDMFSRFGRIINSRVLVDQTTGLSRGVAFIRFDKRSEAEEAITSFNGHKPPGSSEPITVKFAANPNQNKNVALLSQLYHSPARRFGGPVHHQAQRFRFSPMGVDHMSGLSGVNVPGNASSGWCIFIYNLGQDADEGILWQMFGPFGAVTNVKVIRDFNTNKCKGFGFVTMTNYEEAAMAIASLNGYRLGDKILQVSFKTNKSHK
Value kind: Kd (nM)

>>> df
                                   molecule  value_kind  unit_of_measurement  observed
0  Cc1c(C(=O)NC(Cc2c[nH]c3ccccc23)C(=O)NCCCN2CCCC2=O)cc(C(=O)CN2CCCCC2)n1Cc1ccccc1 (centres unmarked)          Kd                   nM       143
1  COc1cccc(CCn2c(C(=O)CN3CCCCC3)cc(C(=O)NC(CC(=O)O)C(=O)NCCCN3CCCC3=O)c2C)c1 (centres unmarked)          Kd                   nM       104
